Test system: Mus musculus
Assay: Toxicity in mouse allografted with mouse Sarcoma 180 cells assessed as mortality at 100 mg/kg, ip qd for 8 days measured one day after last treatment relative to control
Format: organism-based
Parameters: dose 100 mg/kg, route intraperitoneal
Conditions: in vivo, 192 h
METRIC: Activity

1. Nc1cc2ncn([C@H]3O[C@H](CO)[C@@H](O)[C@@H]3O)c2c(=O)[nH]1    Non-toxic
2. Nc1cc2nc[nH]c2c(=O)[nH]1    Toxic
3. Nc1cc2c(ncn2[C@H]2O[C@H](CO)[C@@H](O)[C@@H]2O)c(=O)[nH]1    Non-toxic
4. Nc1cc2ncn([C@@H]3O[C@H](CO)[C@@H](O)[C@@H]3O)c2c(=O)[nH]1    Non-toxic
5. Nc1cc2c(ncn2[C@@H]2O[C@H](CO)[C@@H](O)[C@@H]2O)c(=O)[nH]1    Non-toxic

====

Tested on: Sarcoma-180
Assay: Antitumor activity against mouse Sarcoma 180 cells allografted in mouse assessed as reduction in tumor growth at 100 mg/kg, ip qd for 8 days measured one day after last treatment relative to control
Assay type: functional
Conditions: Sarcoma-180, ip, route intraperitoneal, read-out: TGI
Label scheme for inhibition in vivo at 100 mg/kg: lower than 20% is False, 20% and above is True.

1. Nc1cc2nc[nH]c2c(=O)[nH]1 [DEZAGUANINE]    True
2. Nc1cc2ncn([C@@H]3O[C@H](CO)[C@@H](O)[C@@H]3O)c2c(=O)[nH]1    False
3. Nc1cc2c(ncn2[C@H]2O[C@H](CO)[C@@H](O)[C@@H]2O)c(=O)[nH]1    True
4. Nc1cc2ncn([C@H]3O[C@H](CO)[C@@H](O)[C@@H]3O)c2c(=O)[nH]1    False
5. Nc1cc2c(ncn2[C@@H]2O[C@H](CO)[C@@H](O)[C@@H]2O)c(=O)[nH]1    False
